# assayed system: NK1 (Homo sapiens)
# Sequence (P25103 whole entry): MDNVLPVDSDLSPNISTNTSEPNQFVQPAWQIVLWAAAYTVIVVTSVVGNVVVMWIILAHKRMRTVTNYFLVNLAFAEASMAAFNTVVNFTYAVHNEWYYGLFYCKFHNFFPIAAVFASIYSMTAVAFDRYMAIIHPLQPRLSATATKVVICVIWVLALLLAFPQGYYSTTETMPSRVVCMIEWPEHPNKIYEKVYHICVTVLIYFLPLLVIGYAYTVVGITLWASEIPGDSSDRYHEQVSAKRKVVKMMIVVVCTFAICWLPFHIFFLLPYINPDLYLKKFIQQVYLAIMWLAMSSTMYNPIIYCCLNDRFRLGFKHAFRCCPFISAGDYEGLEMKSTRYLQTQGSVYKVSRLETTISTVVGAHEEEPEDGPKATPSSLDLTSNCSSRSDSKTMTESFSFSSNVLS
# protocol summary: Signal transduction (ST), intracellular Ca++ FLIPR, NK1
# Type: cell-based
# experimental parameters: antagonist, read-out: NK1 pIC50 (converted)
Reported IC50 values for the following compounds.
All answers are understood in nM, so give the number only.

Worked examples follow.
1. O=C(c1ccoc1)N1CCC2(CC1)CCN(C1CCN(C(=O)c3cc(C(F)(F)F)cc(C(F)(F)F)c3)C(Cc3ccccc3)C1)C(=O)O2 (stereo not drawn) [Compound 1.7]	15.8
2. O=C(c1ccccc1)N1CCC2(CC1)CCN(C1CCN(C(=O)c3cc(C(F)(F)F)cc(C(F)(F)F)c3)C(Cc3ccccc3)C1)C(=O)O2 (stereo not drawn) [Compound 1.11]	31.6
3. O=C(c1ccccc1)N1CCC2(CC1)CCN(C1CCN(C(=O)c3cc(C(F)(F)F)cc(C(F)(F)F)c3)C(Cc3ccccc3)C1)C(=O)O2 (stereo not drawn) [Compound 1.12]	50.1

Q: For the compound Cn1cccc1CN1CCC2(CCN(C3CCN(C(=O)c4cc(C(F)(F)F)cc(C(F)(F)F)c4)C(Cc4ccccc4)C3)CC2)OC1=O (single isomer, unassigned) [Compound 2.9] , give its reported IC50.
Result: 631

Q: For the compound O=C(c1cnccn1)N1CCC2(CC1)CCN(C1CCN(C(=O)c3cc(C(F)(F)F)cc(C(F)(F)F)c3)C(Cc3ccccc3)C1)C(=O)O2 (stereo not drawn) [Compound 1.13] , give its reported IC50.
Result: 50.1

Q: For the compound O=C(c1ccoc1)N1CCC2(CC1)CCN(C1CCN(C(=O)c3cc(C(F)(F)F)cc(C(F)(F)F)c3)C(Cc3ccccc3)C1)C(=O)O2 (stereo not drawn) [Compound 1.8] , give its reported IC50.
Result: 25.1

---

# assayed system: UniProt:P29371
# Sequence (P29371 whole entry): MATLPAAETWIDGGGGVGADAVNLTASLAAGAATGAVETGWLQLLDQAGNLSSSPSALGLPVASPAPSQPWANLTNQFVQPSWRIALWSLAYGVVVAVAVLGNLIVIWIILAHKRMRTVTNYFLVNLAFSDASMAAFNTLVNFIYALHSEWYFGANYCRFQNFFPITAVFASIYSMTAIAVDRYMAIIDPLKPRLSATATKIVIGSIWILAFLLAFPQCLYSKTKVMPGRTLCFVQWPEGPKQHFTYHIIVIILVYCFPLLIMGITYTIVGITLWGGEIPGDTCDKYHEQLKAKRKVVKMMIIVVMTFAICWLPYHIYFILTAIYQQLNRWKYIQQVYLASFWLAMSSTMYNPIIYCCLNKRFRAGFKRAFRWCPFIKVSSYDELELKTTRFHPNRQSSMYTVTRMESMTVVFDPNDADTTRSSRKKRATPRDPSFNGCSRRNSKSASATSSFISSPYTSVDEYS
# protocol summary: Signal transduction (ST), intracellular Ca++ FLIPR, NK3
# Assay type: cell-based
# experimental parameters: antagonist, read-out: NK3 pIC50 (converted)
readout name: IC50 (nM)
All answers are understood in nM, so give the number only.

Worked examples follow.
1) O=C1OC2(CCN1Cc1cccnc1)CCN(C1CCN(C(=O)c3cc(C(F)(F)F)cc(C(F)(F)F)c3)C(Cc3ccccc3)C1)CC2 (single isomer, unassigned) [Compound 2.16]	1580
2) O=C(c1ccccc1)N1CCC2(CC1)CCN(C1CCN(C(=O)c3cc(C(F)(F)F)cc(C(F)(F)F)c3)C(Cc3ccccc3)C1)C(=O)O2 (stereo not drawn)	794

The record that follows has no IC50 shown yet.
Q: Please indicate recorded IC50 of O=C(c1cnccn1)N1CCC2(CC1)CCN(C1CCN(C(=O)c3cc(C(F)(F)F)cc(C(F)(F)F)c3)C(Cc3ccccc3)C1)C(=O)O2 (stereo not drawn) measured with UniProt:P29371.
Result: 1580

---

# assayed system: NK1 (Homo sapiens)
# protocol summary: Signal transduction (ST), intracellular Ca++ FLIPR, NK1
# Assay type: cell-based
# experimental parameters: antagonist, read-out: NK1 pIC50 (converted)
Reported IC50 values for the following compounds.

Worked examples follow.
1. O=C1OC2(CCN1Cc1cccnc1)CCN(C1CCN(C(=O)c3cc(C(F)(F)F)cc(C(F)(F)F)c3)C(Cc3ccccc3)C1)CC2 (single isomer, unassigned) [Compound 2.17]	100 nM
2. O=C(C1CC1)N1CCC2(CC1)CCN([C@H]1CCN(C(=O)c3cc(C(F)(F)F)cc(C(F)(F)F)c3)[C@H](Cc3ccccc3)C1)C(=O)O2 [Compound 1.4]	12.6 nM
3. O=C1OC2(CCN1Cc1ccsc1)CCN(C1CCN(C(=O)c3cc(C(F)(F)F)cc(C(F)(F)F)c3)C(Cc3ccccc3)C1)CC2 (stereo not shown) [Compound 2.7]	158 nM

Q: For the compound O=C1OC2(CCN1Cc1ccc(O)cc1)CCN(C1CCN(C(=O)c3cc(C(F)(F)F)cc(C(F)(F)F)c3)C(Cc3ccccc3)C1)CC2 (stereo not shown) [Compound 2.15] , give its reported IC50.
Result: 316 nM

Q: For the compound O=C1OC2(CCN1Cc1cccnc1)CCN(C1CCN(C(=O)c3cc(C(F)(F)F)cc(C(F)(F)F)c3)C(Cc3ccccc3)C1)CC2 (single isomer, unassigned) [Compound 2.16] , give its reported IC50.
Result: 398 nM

Q: For the compound CCC(CC)CN1CCC2(CCN(C3CCN(C(=O)c4cc(C(F)(F)F)cc(C(F)(F)F)c4)C(Cc4ccccc4)C3)CC2)OC1=O (single isomer, unassigned) [Compound 2.3] , give its reported IC50.
Result: 398 nM

Q: For the compound Cn1cccc1CN1CCC2(CCN(C3CCN(C(=O)c4cc(C(F)(F)F)cc(C(F)(F)F)c4)C(Cc4ccccc4)C3)CC2)OC1=O (single isomer, unassigned) [Compound 2.10] , give its reported IC50.
Result: 79.4 nM

Q: For the compound Cc1ccccc1CN1CCC2(CCN(C3CCN(C(=O)c4cc(C(F)(F)F)cc(C(F)(F)F)c4)C(Cc4ccccc4)C3)CC2)OC1=O (stereo not shown) [Compound 2.11] , give its reported IC50.
Result: 398 nM

Q: For the compound Cc1nnsc1C(=O)N1CCC2(CC1)CCN(C1CCN(C(=O)c3cc(C(F)(F)F)cc(C(F)(F)F)c3)C(Cc3ccccc3)C1)C(=O)O2 (stereo not shown) [Compound 1.10] , give its reported IC50.
Result: 12.6 nM

Q: For the compound Cc1ccccc1CN1CCC2(CCN(C3CCN(C(=O)c4cc(C(F)(F)F)cc(C(F)(F)F)c4)C(Cc4ccccc4)C3)CC2)OC1=O (stereo not shown) [Compound 2.12] , give its reported IC50.
Result: 251 nM

Q: For the compound CC(C)(C)CN1CCC2(CCN(C3CCN(C(=O)c4cc(C(F)(F)F)cc(C(F)(F)F)c4)C(Cc4ccccc4)C3)CC2)OC1=O (single isomer, unassigned) [Compound 2.2] , give its reported IC50.
Result: 63.1 nM

Q: For the compound CC(C)(C)C(=O)N1CCC2(CC1)CCN(C1CCN(C(=O)c3cc(C(F)(F)F)cc(C(F)(F)F)c3)C(Cc3ccccc3)C1)C(=O)O2 (stereo not shown) [Compound 1.3] , give its reported IC50.
Result: 10 nM

Q: For the compound O=C1OC2(CCN1CC1CCCCC1)CCN(C1CCN(C(=O)c3cc(C(F)(F)F)cc(C(F)(F)F)c3)C(Cc3ccccc3)C1)CC2 (stereo not shown) [Compound 2.5] , give its reported IC50.
Result: 200 nM
